Sourced from PubChem BioAssay (NCATS)

# Test system: Tov112D
# method description: Primary qHTS to identify gynecologic anti-cancer compounds using libraries of approved drugs and bioactive compounds (AID 1345084); further: nearly all actives have a fitted effect of over 55% in size; on activity change, negative = cytotoxicity: on the % scale 0 is the no-effect control and ±100 the full control effect
# settings: Gynecologic cancer cell panel viability, ATPlite luminescence, 48 h; series mostly up to 57.5 µM
# From the text: National Center for Advancing Translational Sciences [NCATS] Assay Overview: Chemotherapeutic drug responses vary from cancer to cancer and from patient to patient. […] ATPlite is a luminescence based assay reliant on the conversion of a luciferase substrate to light in the presence of ATP. As a cytotoxic compound will suppress growth and decrease the number of cells, the concentration of ATP will decrease, and less light signal will be detected in the well. […]
Records with an inconclusive call do not appear. The source made the active and inactive calls. The call rests on the fitted dose curve; in most records, active means well fitted cell-killing curve with a large enough effect; inconclusive means small, poorly fitted or top-dose-only effect, or effect the other way; inactive means flat fitted curve, though single readings scatter.
measurement name: activity change, negative = cytotoxicity

compound	activity change, negative = cytotoxicity
C[C@@H]1O[C@@H](O[C@H]2[C@H](O[C@H]3CC[C@@]4(C)C(CC[C@]5(C)C4CC=C4[C@@H]6CC(C)(C)CC[C@]6(C(=O)O[C@@H]6OC[C@H](O)[C@H](O)[C@H]6O[C@@H]6O[C@@H](C)[C@H](O[C@@H]7O[C@H](CO)[C@@H](O)[C@H](O)[C@H]7O)[C@H](O)[C@H]6O)[C@H](O)C[C@]45C)C3(C)C)O[C@H](CO)[C@@H](O[C@@H]3OC[C@@H](O)[C@H](O)[C@H]3O)[C@@H]2O)[C@H](O)[C@H](O)[C@H]1O (stereo partly drawn)	-23.4% [at 6.55 µM] (inactive)
C[C@@H]1O[C@@H](O[C@@H]2[C@@H](O[C@@H]3O[C@@H](C)[C@H](O[C@@H]4OC[C@H](O)[C@H](O[C@@H]5OC[C@@H](O)[C@H](O)[C@H]5O)[C@H]4O)[C@@H](O[C@@H]4OC[C@](O)(CO)[C@H]4O)[C@H]3O)[C@H](OC(=O)[C@]34CCC(C)(C)C[C@H]3C3=CCC5[C@@]6(C)C[C@H](O)[C@H](O[C@@H]7O[C@H](CO[C@@H]8OC[C@H](O)[C@H](O)[C@H]8O)[C@@H](O)[C@H](O)[C@H]7O)C(C)(C)C6CC[C@@]5(C)[C@]3(C)C[C@H]4O)OC[C@H]2O)[C@H](O)[C@H](O)[C@H]1O (stereo partly drawn)	7.07% [at 6.55 µM] (inactive)

Note: attention shifts to another entry.
In: # query: activity change, negative = cytotoxicity of entry C[C@@H]1O[C@@H](O[C@H]2[C@H](O)[C@@H](O)[C@H](OC[C@H]3O[C@@H](OC(=O)[C@]45CCC(C)(C)C[C@H]4C4=CCC6[C@@]7(C)CC[C@H](O[C@@H]8OC[C@H](O)[C@H](O[C@@H]9O[C@H](CO)[C@@H](O)[C@H](O)[C@H]9O)[C@H]8O)[C@@](C)(CO)C7CC[C@@]6(C)[C@]4(C)CC5)[C@H](O)[C@@H](O)[C@@H]3O)O[C@@H]2CO)[C@H](O)[C@H](O)[C@H]1O (stereo partly drawn)
Out: -0.716% [at 6.55 µM] (inactive)

---

# Tested on: CAOV3
# method description: Primary qHTS to identify gynecologic anti-cancer compounds using libraries of approved drugs and bioactive compounds (AID 1345084); further: nearly all actives have a fitted effect of over 55% in size
# settings: Gynecologic cancer cell panel viability, ATPlite luminescence, 48 h; series mostly up to 57.5 µM
Results filed as inconclusive are left out. Calls of active or inactive are those of the source. The call rests on the fitted dose curve; in most records, active means well fitted cell-killing curve with a large enough effect; inconclusive means small, poorly fitted or top-dose-only effect, or effect the other way; inactive means flat fitted curve, though single readings scatter.
Answer with one of the outcomes given here: label 1 (active), label 0 (inactive)

In: I would be grateful if you could indicate the recorded call for CC[C@]1(O)CC2CN(CCc3c([nH]c4ccccc34)[C@@](C(=O)OC)(c3cc4c(cc3OC)N(C=O)[C@H]3[C@@](O)(C(=O)OC)[C@H](OC(C)=O)[C@]5(CC)C=CCN6CC[C@]43[C@@H]65)C2)C1 (stereo partly drawn) .
Out: label 0

In: I would be grateful if you could indicate the recorded call for CC/C=C/CC1=C(CCCCC(CCC(=O)O)OC(C)=O)CCC1=O (stereo not drawn) .
Out: label 0

In: I would be grateful if you could indicate the recorded call for CC1=CC(=O)CC2C1(O)CCC(C)C21CC(c2ccoc2)OC1=O (stereo not drawn) .
Out: label 0

In: I would be grateful if you could indicate the recorded call for COc1ccc(C(O)C(C)OC2OC(CO)C(O)C(O)C2O)cc1 (stereo not drawn) .
Out: label 0

In: I would be grateful if you could indicate the recorded call for C=C(C(=O)O)C1CC(O)C2(C)CCCC(=C)C2C1 (stereo not drawn) .
Out: label 0

In: I would be grateful if you could indicate the recorded call for COC(=O)CC(O)CC(O)/C=C/c1c(C)ccc2c1C(O)CC(C)C2 (stereo not drawn) .
Out: label 0

In: I would be grateful if you could indicate the recorded call for CC(=O)OC12COC1CC(O)C1(C)C(=O)C(O)C3=C(C)C(OC(=O)C(O)C(NC(=O)OC(C)(C)C)c4ccccc4)CC(O)(C(OC(=O)c4ccccc4)C21)C3(C)C (stereo not drawn) .
Out: label 0

In: I would be grateful if you could indicate the recorded call for `CCCCCCOc1cc2c(cc1N(C)c1ncc(C(=O)O)cn1)C(C)(C)CCC2(C)C` .
Out: label 0

In: I would be grateful if you could indicate the recorded call for `Cc1cccc2c1NC(=O)C2(c1ccc(O)cc1)c1ccc(O)cc1` .
Out: label 0

In: I would be grateful if you could indicate the recorded call for `CC1(C)CCC(C)(C)c2cc(C3(c4ccc(C(=O)O)cc4)OCCO3)ccc21` .
Out: label 0

In: I would be grateful if you could indicate the recorded call for C[C@@H]1C(=O)O[C@H]2[C@H](O)C34[C@H]5C[C@@H](C(C)(C)C)C36[C@@H](OC(=O)[C@@H]6O)O[C@@]4(C(=O)O5)[C@@]12O (stereo partly drawn) .
Out: label 0

In: I would be grateful if you could indicate the recorded call for CN(C)C/C=C/C(=O)Nc1cc2c(Nc3ccc(F)c(Cl)c3)ncnc2cc1OC1CCOC1 (stereo not drawn) .
Out: label 1

In: I would be grateful if you could indicate the recorded call for CC(Cc1cc2c(c(C(N)=O)c1)N(CCCO)CC2)NCCOc1ccccc1OCC(F)(F)F (stereo not drawn) .
Out: label 0

In: I would be grateful if you could indicate the recorded call for `CC(C)c1cc(C(=O)N2CC[C@@H](NC(=O)C3CC3)C2)n[nH]1` .
Out: label 0

In: I would be grateful if you could indicate the recorded call for `Fc1ccc2nc(CCC#Cc3ccccn3)cn2c1` .
Out: label 0
